Measured Best T/C of individual entries
# System: L-1210 Leukemia
# Assay Overview: L-1210 leukemia in vivo, IV drug vs IP tumor, dosed on day 1
# Set-up: species or system Male BDF1 mice
# Test Context: IV drug vs IP tumor, dosed on day 1; T/C = median survival treated/control x 100; each value at the dose (1-600 µg/kg)
Answer as a number with no unit attached.

Solved cases below.
[[record]]
molecule = "Cc1c[nH]c2c(OC(=O)C(C)(C)C)cc3c(c12)[C@H](CCl)CN3C(=O)c1cc2cc(NC(=O)Nc3ccc4[nH]c(C(=O)N5C[C@@H](CCl)c6c5cc(OC(=O)C(C)(C)C)c5[nH]cc(C)c65)cc4c3)ccc2[nH]1"
measurement = 156

[[record]]
molecule = "CC(=O)Oc1cc2c(c3c(C)c[nH]c13)[C@H](CCl)CN2C(=O)c1cc2cc(NC(=O)Nc3ccc4[nH]c(C(=O)N5C[C@@H](CCl)c6c5cc(OC(C)=O)c5[nH]cc(C)c65)cc4c3)ccc2[nH]1"
measurement = 165


Entry under review: CCCCCCCCCC(=O)Oc1cc2c(c3c(C)c[nH]c13)[C@H](CCl)CN2C(=O)c1cc2cc(NC(=O)Nc3ccc4[nH]c(C(=O)N5C[C@@H](CCl)c6c5cc(OC(=O)CCCCCCCCC)c5[nH]cc(C)c65)cc4c3)ccc2[nH]1 . Reported Best T/C? 243

Note, next up: Cc1c[nH]c2c1C13CC1CN(C(=O)c1cc4cc(NC(=O)Nc5ccc6[nH]c(C(=O)N7CC8CC89C7=CC(=O)c7[nH]cc(C)c79)cc6c5)ccc4[nH]1)C3=CC2=O (stereo not shown) 169

----------
# Test system: L-1210 Leukemia
# Assay Overview: L-1210 leukemia in vivo, IV drug vs IP tumor, dosed on day 1
# Set-up: species or system Male BDF1 mice
# Test Context: IV drug vs IP tumor, dosed on day 1; T/C = median survival treated/control x 100; each value at the dose (1-600 µg/kg)
Measured Best T/C of individual entries
Answer as a number with no unit attached.

Solved cases below.
[[record]]
entry_smiles = "Cc1c[nH]c2c(O)cc3c(c12)[C@H](CCl)CN3C(=O)c1ccc2[nH]c(C(=O)Nc3ccc4[nH]c(C(=O)N5C[C@@H](CCl)c6c5cc(O)c5[nH]cc(C)c65)cc4c3)cc2c1"
tested_system = "L-1210 Leukemia"
quantity_measured = "Best T/C"
measurement = 188

[[record]]
entry_smiles = "Cc1c[nH]c2c(O)cc3c(c12)[C@H](CCl)CN3C(=O)c1cc2cc(NC(=O)c3ccc4[nH]c(C(=O)Nc5ccc6[nH]c(C(=O)N7C[C@@H](CCl)c8c7cc(O)c7[nH]cc(C)c87)cc6c5)cc4c3)ccc2[nH]1"
tested_system = "L-1210 Leukemia"
quantity_measured = "Best T/C"
measurement = 188

[[record]]
entry_smiles = "Cc1c[nH]c2c(O)cc3c(c12)[C@H](CCl)CN3C(=O)c1cc2cc(NC(=O)CC(=O)Nc3ccc4[nH]c(C(=O)N5C[C@@H](CCl)c6c5cc(O)c5[nH]cc(C)c65)cc4c3)ccc2[nH]1"
tested_system = "L-1210 Leukemia"
quantity_measured = "Best T/C"
measurement = 194

[[record]]
entry_smiles = "Cc1c[nH]c2c(O)cc3c(c12)[C@H](CCl)CN3C(=O)c1cc2cc(NC(=O)c3ccc(C(=O)Nc4ccc5[nH]c(C(=O)N6C[C@@H](CCl)c7c6cc(O)c6[nH]cc(C)c76)cc5c4)o3)ccc2[nH]1"
tested_system = "L-1210 Leukemia"
quantity_measured = "Best T/C"
measurement = 178


With those in mind, consider the next compound.
Entry under review: Cc1c[nH]c2c(O)cc3c(c12)[C@H](CCl)CN3C(=O)c1cc2cc(NC(=O)c3ccc4[nH]c(C(=O)N5C[C@@H](CCl)c6c5cc(O)c5[nH]cc(C)c65)cc4c3)ccc2[nH]1 . Reported Best T/C? 181
